Answer each item with its documented PBM binding z-score.
- Tested on: PPARg DBDmut:RXRa IVT, anti-PPARg (DBD mutation: PPARg1 K132A/R137A, NR concentration 270 nM, RXRa partner concentration 90 nM)
- measurement.description: PBM binding z-score (relative to random genomic background probes); higher = stronger binding; sequences stand for … in GC…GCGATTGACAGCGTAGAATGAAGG
# respond with the number and nothing more

Query block: Give reported PBM binding z-score value for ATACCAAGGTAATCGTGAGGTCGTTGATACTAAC
Result block: 0.385

Query block: Give reported PBM binding z-score value for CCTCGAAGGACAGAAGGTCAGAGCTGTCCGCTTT
Result block: -0.921

Query block: Give reported PBM binding z-score value for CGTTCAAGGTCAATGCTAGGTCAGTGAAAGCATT
Result block: 0.872

Query block: Give reported PBM binding z-score value for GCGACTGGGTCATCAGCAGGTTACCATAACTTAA
Result block: 0.513

Query block: Give reported PBM binding z-score value for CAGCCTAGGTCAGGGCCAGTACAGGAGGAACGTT
Result block: -0.899

Query block: Give reported PBM binding z-score value for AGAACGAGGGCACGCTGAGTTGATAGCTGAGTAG
Result block: 0.643

* * *

- Tested on: LXRb homodimer (NR concentration 270 nM)
- measurement.description: PBM binding z-score (relative to random genomic background probes); higher = stronger binding; sequences stand for … in GC…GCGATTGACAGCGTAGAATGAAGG
property.label: PBM binding z-score
# respond with the number and nothing more

Query block: Answer with PBM binding z-score of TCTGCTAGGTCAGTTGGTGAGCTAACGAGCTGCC measured for LXRb homodimer (NR concentration 270 nM).
Result block: 0.264

Query block: Answer with PBM binding z-score of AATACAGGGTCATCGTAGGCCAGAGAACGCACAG measured for LXRb homodimer (NR concentration 270 nM).
Result block: 1.09

Query block: Answer with PBM binding z-score of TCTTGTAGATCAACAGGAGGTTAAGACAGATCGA measured for LXRb homodimer (NR concentration 270 nM).
Result block: -0.342

Query block: Answer with PBM binding z-score of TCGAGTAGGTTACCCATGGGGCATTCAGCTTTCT measured for LXRb homodimer (NR concentration 270 nM).
Result block: -0.79

Query block: Answer with PBM binding z-score of CGAACTAGGTCATCGACAGGACAGTGAATAGTAA measured for LXRb homodimer (NR concentration 270 nM).
Result block: -0.0443

Query block: Answer with PBM binding z-score of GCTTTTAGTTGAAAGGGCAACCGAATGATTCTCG measured for LXRb homodimer (NR concentration 270 nM).
Result block: 0.106

Query block: Answer with PBM binding z-score of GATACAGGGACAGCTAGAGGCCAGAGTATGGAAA measured for LXRb homodimer (NR concentration 270 nM).
Result block: -0.57

Query block: Answer with PBM binding z-score of ATTGAAAGGTCGAGGTGAGTATAGAGAAAGGGAA measured for LXRb homodimer (NR concentration 270 nM).
Result block: 1.15

Query block: Answer with PBM binding z-score of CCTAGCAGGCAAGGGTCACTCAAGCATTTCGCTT measured for LXRb homodimer (NR concentration 270 nM).
Result block: -0.627

Query block: Answer with PBM binding z-score of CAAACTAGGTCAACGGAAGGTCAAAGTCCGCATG measured for LXRb homodimer (NR concentration 270 nM).
Result block: 1.55

Query block: Answer with PBM binding z-score of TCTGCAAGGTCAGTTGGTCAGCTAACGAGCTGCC measured for LXRb homodimer (NR concentration 270 nM).
Result block: 1.17

Query block: Answer with PBM binding z-score of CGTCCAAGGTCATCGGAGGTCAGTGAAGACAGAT measured for LXRb homodimer (NR concentration 270 nM).
Result block: 1.29

Query block: Answer with PBM binding z-score of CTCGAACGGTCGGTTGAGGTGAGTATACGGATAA measured for LXRb homodimer (NR concentration 270 nM).
Result block: -0.761

Query block: Answer with PBM binding z-score of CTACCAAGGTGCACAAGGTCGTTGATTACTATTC measured for LXRb homodimer (NR concentration 270 nM).
Result block: -0.173

Query block: Answer with PBM binding z-score of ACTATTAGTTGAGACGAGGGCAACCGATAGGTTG measured for LXRb homodimer (NR concentration 270 nM).
Result block: 0.0471

Query block: Answer with PBM binding z-score of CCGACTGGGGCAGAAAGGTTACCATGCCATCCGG measured for LXRb homodimer (NR concentration 270 nM).
Result block: -1.31

Query block: Answer with PBM binding z-score of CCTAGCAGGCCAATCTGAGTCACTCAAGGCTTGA measured for LXRb homodimer (NR concentration 270 nM).
Result block: -0.64

Query block: Answer with PBM binding z-score of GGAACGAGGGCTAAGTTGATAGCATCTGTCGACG measured for LXRb homodimer (NR concentration 270 nM).
Result block: -0.848

Query block: Answer with PBM binding z-score of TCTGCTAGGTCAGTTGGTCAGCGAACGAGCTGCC measured for LXRb homodimer (NR concentration 270 nM).
Result block: 0.433

Query block: Answer with PBM binding z-score of ATCGAAAGGTCGAAGGTGAATATACCCACCCGAA measured for LXRb homodimer (NR concentration 270 nM).
Result block: 0.763

Query block: Answer with PBM binding z-score of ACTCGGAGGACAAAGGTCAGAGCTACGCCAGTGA measured for LXRb homodimer (NR concentration 270 nM).
Result block: 0.202

Query block: Answer with PBM binding z-score of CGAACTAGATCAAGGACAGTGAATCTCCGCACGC measured for LXRb homodimer (NR concentration 270 nM).
Result block: -0.00382

Query block: Answer with PBM binding z-score of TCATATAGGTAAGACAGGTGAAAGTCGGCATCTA measured for LXRb homodimer (NR concentration 270 nM).
Result block: 0.0128

Query block: Answer with PBM binding z-score of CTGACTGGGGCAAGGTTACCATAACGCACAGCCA measured for LXRb homodimer (NR concentration 270 nM).
Result block: -0.221

Query block: Answer with PBM binding z-score of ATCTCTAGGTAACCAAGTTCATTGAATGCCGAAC measured for LXRb homodimer (NR concentration 270 nM).
Result block: 1.1

Query block: Answer with PBM binding z-score of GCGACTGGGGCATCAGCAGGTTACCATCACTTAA measured for LXRb homodimer (NR concentration 270 nM).
Result block: -0.992

Query block: Answer with PBM binding z-score of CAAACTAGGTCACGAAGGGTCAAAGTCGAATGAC measured for LXRb homodimer (NR concentration 270 nM).
Result block: 1.09

Query block: Answer with PBM binding z-score of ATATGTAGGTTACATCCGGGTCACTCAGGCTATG measured for LXRb homodimer (NR concentration 270 nM).
Result block: 0.682

Query block: Answer with PBM binding z-score of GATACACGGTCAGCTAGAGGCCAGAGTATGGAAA measured for LXRb homodimer (NR concentration 270 nM).
Result block: -0.753

Query block: Answer with PBM binding z-score of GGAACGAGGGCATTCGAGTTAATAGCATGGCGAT measured for LXRb homodimer (NR concentration 270 nM).
Result block: -0.759

Query block: Answer with PBM binding z-score of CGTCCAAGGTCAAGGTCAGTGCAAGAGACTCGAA measured for LXRb homodimer (NR concentration 270 nM).
Result block: 0.528

Query block: Answer with PBM binding z-score of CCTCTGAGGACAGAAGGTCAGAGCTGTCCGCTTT measured for LXRb homodimer (NR concentration 270 nM).
Result block: -0.446

Query block: Answer with PBM binding z-score of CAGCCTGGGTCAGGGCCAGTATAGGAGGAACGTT measured for LXRb homodimer (NR concentration 270 nM).
Result block: -1.02

Query block: Answer with PBM binding z-score of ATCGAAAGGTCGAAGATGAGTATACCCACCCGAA measured for LXRb homodimer (NR concentration 270 nM).
Result block: 0.732

Query block: Answer with PBM binding z-score of TCGAGTAGGTTAGTCGGGGCATTCATCCAACATA measured for LXRb homodimer (NR concentration 270 nM).
Result block: -0.262

Query block: Answer with PBM binding z-score of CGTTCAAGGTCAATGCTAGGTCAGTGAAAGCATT measured for LXRb homodimer (NR concentration 270 nM).
Result block: 1.24

Query block: Answer with PBM binding z-score of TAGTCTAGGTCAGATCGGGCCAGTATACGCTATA measured for LXRb homodimer (NR concentration 270 nM).
Result block: 1.4

Query block: Answer with PBM binding z-score of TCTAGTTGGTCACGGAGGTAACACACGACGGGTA measured for LXRb homodimer (NR concentration 270 nM).
Result block: 0.515

Query block: Answer with PBM binding z-score of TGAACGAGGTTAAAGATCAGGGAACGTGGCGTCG measured for LXRb homodimer (NR concentration 270 nM).
Result block: -0.0519

Query block: Answer with PBM binding z-score of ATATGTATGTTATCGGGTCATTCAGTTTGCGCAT measured for LXRb homodimer (NR concentration 270 nM).
Result block: 1.09

Query block: Answer with PBM binding z-score of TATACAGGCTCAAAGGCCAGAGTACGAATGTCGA measured for LXRb homodimer (NR concentration 270 nM).
Result block: -0.0867

Query block: Answer with PBM binding z-score of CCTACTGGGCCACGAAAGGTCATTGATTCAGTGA measured for LXRb homodimer (NR concentration 270 nM).
Result block: 0.552

Query block: Answer with PBM binding z-score of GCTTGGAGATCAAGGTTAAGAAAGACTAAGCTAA measured for LXRb homodimer (NR concentration 270 nM).
Result block: -1.08

Query block: Answer with PBM binding z-score of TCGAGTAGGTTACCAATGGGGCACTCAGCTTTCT measured for LXRb homodimer (NR concentration 270 nM).
Result block: -0.732

Query block: Answer with PBM binding z-score of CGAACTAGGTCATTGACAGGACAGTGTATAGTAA measured for LXRb homodimer (NR concentration 270 nM).
Result block: 0.106

Query block: Answer with PBM binding z-score of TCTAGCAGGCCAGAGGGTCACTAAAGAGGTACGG measured for LXRb homodimer (NR concentration 270 nM).
Result block: -1.08

Query block: Answer with PBM binding z-score of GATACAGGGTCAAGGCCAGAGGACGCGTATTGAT measured for LXRb homodimer (NR concentration 270 nM).
Result block: -0.0333

Query block: Answer with PBM binding z-score of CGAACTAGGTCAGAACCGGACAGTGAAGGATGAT measured for LXRb homodimer (NR concentration 270 nM).
Result block: -0.379

Query block: Answer with PBM binding z-score of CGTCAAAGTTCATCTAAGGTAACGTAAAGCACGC measured for LXRb homodimer (NR concentration 270 nM).
Result block: 2.11

Query block: Answer with PBM binding z-score of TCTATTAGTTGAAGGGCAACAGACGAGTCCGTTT measured for LXRb homodimer (NR concentration 270 nM).
Result block: 0.326

Query block: Answer with PBM binding z-score of GCGACTGGGGCATCAGCCGGTTACCATAACTTAA measured for LXRb homodimer (NR concentration 270 nM).
Result block: -1.65
